Study system: HLA-DQA1*01:02/DQB1*06:02 soluble heterodimer (human), P01920
Assay explanation: FP competition with FITC probe, HLA-sDM, average
Test readout: pIC50
API: returns pIC50 as number; meaning -log10 of concentration in mol/L.

Enquiry: Which pIC50 is reported for this binder? PDKVFRSSVLHSTQDL (modifications not checked) [S39-54]
Return: 5.80

Enquiry: Which pIC50 is reported for this binder? LPDDFTGCVIAWNSNN (modifications not checked) [S425-440]
Return: 6.41

Enquiry: Which pIC50 is reported for this binder? GGFNFSQILPDPS (modifications not checked) [S798-810]
Return: 5.92

Enquiry: Which pIC50 is reported for this binder? TQQLIRAAEIRASAN (modifications not checked) [S1009-1023]
Return: 6.28

Enquiry: Which pIC50 is reported for this binder? AAATAGTTVYGAKAA (modifications not checked) [Positive control peptide … (unlabelled)]
Return: 5.96

The origin of these recorded values is patent US20260031189A1.
